Molecular target: caspase-3 (Homo sapiens, UniProt P42574)
Construct: purchased Sigma-Aldrich (St. Louis, Mo.)
Sequence (P42574 29-175 limits assumed): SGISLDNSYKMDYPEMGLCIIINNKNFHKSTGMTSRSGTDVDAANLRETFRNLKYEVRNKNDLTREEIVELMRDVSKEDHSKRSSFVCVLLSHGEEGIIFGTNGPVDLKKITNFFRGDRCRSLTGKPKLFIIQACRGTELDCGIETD
Sequence (P42574 176-277 limits assumed): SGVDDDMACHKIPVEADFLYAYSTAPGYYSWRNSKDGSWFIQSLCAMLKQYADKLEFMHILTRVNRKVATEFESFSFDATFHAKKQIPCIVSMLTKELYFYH
Assay: Enzyme inhibition assay, caspase 3 (fluorogenic Ac-DEVD-AMC)
Format: biochemical
Conditions: Table 7; read-out: IC50 (nM) Casp-3
MEASURE: IC50 (nM)

>  <COMPOUND>
CN1C(=O)C(=C(C#N)C#N)c2cc(S(=O)(=O)N3CCCC3COc3ccccc3)ccc21 (stereo not shown) [Compound 27a]

>  <MEASURE>
IC50

>  <UNITS SYMBOL>
nM

>  <NUMERIC READOUT>
119

$$$$
>  <COMPOUND>
N#CC(C#N)=C1C(=O)Nc2ccc(S(=O)(=O)N3CCCC3COc3ccccc3)cc21 (stereo not shown)

>  <MEASURE>
IC50

>  <UNITS SYMBOL>
nM

>  <NUMERIC READOUT>
272

$$$$
>  <COMPOUND>
N#CC(C#N)=C1C(=O)N(Cc2ccc(O)cc2)c2ccc(S(=O)(=O)N3CCC[C@H]3COc3ccccc3)cc21 [Compound 27c]

>  <MEASURE>
IC50

>  <UNITS SYMBOL>
nM

>  <NUMERIC READOUT>
31.8

$$$$
>  <COMPOUND>
N#CC(C#N)=C1C(=O)N(Cc2ccc(Br)cc2)c2ccc(S(=O)(=O)N3CCCC3COc3ccccc3)cc21 (stereo not shown) [Compound 27d]

>  <MEASURE>
IC50

>  <UNITS SYMBOL>
nM

>  <NUMERIC READOUT>
20.1

$$$$

----------
Biological target: caspase 7 (Homo sapiens)
Construct: purchased Sigma-Aldrich (St. Louis, Mo.)
Experiment: Enzyme inhibition assay, caspase 7 (fluorogenic Ac-DEVD-AMC)
Assay type: biochemical
Conditions: Table 2; read-out: IC50 (nM) Caspase 7
Labelling: IC50 reported below 50 nM becomes y; at or above becomes n.

>  <MOLECULE>
N#CC(C#N)=C1C(=O)Nc2ccc(S(=O)(=O)N3CCCC3COc3ccccc3)cc21 (centres unmarked)

>  <DISCRETE LABEL>
n

$$$$
>  <MOLECULE>
CN1C(=O)C(=C(C#N)C#N)c2cc(S(=O)(=O)N3CCCC3COc3ccccc3)ccc21 (centres unmarked) [Compound 27a]

>  <DISCRETE LABEL>
n

$$$$
>  <MOLECULE>
N#CC(C#N)=C1C(=O)Nc2ccc(S(=O)(=O)N3CC[C@H]3COc3ccccc3)cc21

>  <DISCRETE LABEL>
n

$$$$
>  <MOLECULE>
O=C1Nc2ccc(S(=O)(=O)N3CC[C@H]3COc3ccccc3)cc2C1=NO

>  <DISCRETE LABEL>
n

$$$$
>  <MOLECULE>
CC(=O)N[C@@H](CC(=O)O)C(=O)N[C@@H](CCC(=O)O)C(=O)N[C@H](C(=O)N[C@H](C=O)CC(=O)O)C(C)C [Ac-DEVD-CHO, reference compound]

>  <DISCRETE LABEL>
y

$$$$
>  <MOLECULE>
N#CC(C#N)=C1C(=O)N(Cc2ccc(Br)cc2)c2ccc(S(=O)(=O)N3CCCC3COc3ccccc3)cc21 (centres unmarked) [Compound 27d]

>  <DISCRETE LABEL>
n

$$$$
>  <MOLECULE>
N#CC(C#N)=C1C(=O)N(Cc2ccc(OCCF)cc2)c2ccc(S(=O)(=O)N3CCC[C@H]3COc3cccnc3)cc21

>  <DISCRETE LABEL>
y

$$$$
>  <MOLECULE>
N#CC(C#N)=C1C(=O)N(Cc2ccc(OCCF)cc2)c2ccc(S(=O)(=O)N3CCC[C@H]3COc3ccccc3)cc21

>  <DISCRETE LABEL>
n

$$$$
>  <MOLECULE>
N#CC(C#N)=C1C(=O)N(Cc2ccc(OCCF)cc2)c2ccc(S(=O)(=O)N3CC[C@H]3COc3cccnc3)cc21

>  <DISCRETE LABEL>
y

$$$$
>  <MOLECULE>
N#CC(C#N)=C1C(=O)N(Cc2ccc(O)cc2)c2ccc(S(=O)(=O)N3CCC[C@H]3COc3ccccc3)cc21 [Compound 27c]

>  <DISCRETE LABEL>
n

$$$$

----------
Target: caspase 7 (Homo sapiens, UniProt P55210)
Construct: purchased Sigma-Aldrich (St. Louis, Mo.)
Sequence (P55210 24-198 limits assumed): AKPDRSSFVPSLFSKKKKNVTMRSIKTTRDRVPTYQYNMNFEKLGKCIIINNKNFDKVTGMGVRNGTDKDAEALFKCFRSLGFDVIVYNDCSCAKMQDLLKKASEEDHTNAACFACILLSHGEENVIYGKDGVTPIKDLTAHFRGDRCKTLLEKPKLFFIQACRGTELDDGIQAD
Sequence (P55210 207-303 limits assumed): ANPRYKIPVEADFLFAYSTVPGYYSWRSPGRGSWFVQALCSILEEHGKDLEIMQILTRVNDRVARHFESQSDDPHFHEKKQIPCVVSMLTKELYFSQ
Assay: Enzyme inhibition assay, caspase 7 (fluorogenic Ac-DEVD-AMC)
Assay type: biochemical
Conditions: IC50 (nM) Casp-7, Table 7
// values below are reported IC50
MEASURE: IC50 (nM)

>  <COMPOUND>
O=C1C(=O)N(Cc2ccc(O)cc2)c2ccc(S(=O)(=O)N3CCCC3COc3cccnc3)cc21 (centres unmarked) [Compound 28b]

>  <UNITS SYMBOL>
nM

>  <NUMERIC READOUT>
11.7

$$$$
>  <COMPOUND>
N#CC(C#N)=C1C(=O)N(Cc2ccccc2)c2ccc(S(=O)(=O)N3CCCC3COc3cccnc3)cc21 (centres unmarked) [Compound 30a]

>  <UNITS SYMBOL>
nM

>  <NUMERIC READOUT>
32.8

$$$$
>  <COMPOUND>
O=C1C(=O)N(Cc2ccc(Br)cc2)c2ccc(S(=O)(=O)N3CCCC3COc3ccccc3)cc21 (centres unmarked) [Compound 25d]

>  <UNITS SYMBOL>
nM

>  <NUMERIC READOUT>
34.8

$$$$
>  <COMPOUND>
O=C1C(=O)N(Cc2ccc(Br)cc2)c2ccc(S(=O)(=O)N3CCCC3COc3cccnc3)cc21 (centres unmarked) [Compound 28c]

>  <UNITS SYMBOL>
nM

>  <NUMERIC READOUT>
6.6

$$$$
>  <COMPOUND>
N#CC(C#N)=C1C(=O)N(Cc2ccc(Br)cc2)c2ccc(S(=O)(=O)N3CCCC3COc3cccnc3)cc21 (centres unmarked) [Compound 30c]

>  <UNITS SYMBOL>
nM

>  <NUMERIC READOUT>
26.3

$$$$
>  <COMPOUND>
N#CC(C#N)=C1C(=O)N(Cc2ccc(O)cc2)c2ccc(S(=O)(=O)N3CCCC3COc3cccnc3)cc21 (centres unmarked) [Compound 30b]

>  <UNITS SYMBOL>
nM

>  <NUMERIC READOUT>
28.3

$$$$
>  <COMPOUND>
N#CC(C#N)=C1C(=O)N(Cc2ccccc2)c2ccc(S(=O)(=O)N3CCCC3COc3ccccc3)cc21 (centres unmarked) [Compound 27b]

>  <UNITS SYMBOL>
nM

>  <NUMERIC READOUT>
51.7

$$$$
>  <COMPOUND>
COc1ccc(CN2C(=O)C(=C(C#N)C#N)c3cc(S(=O)(=O)N4CCCC4COc4cccnc4)ccc32)cc1 (centres unmarked) [Compound 30d]

>  <UNITS SYMBOL>
nM

>  <NUMERIC READOUT>
29.6

$$$$

----------
Molecular target: caspase 1 (Homo sapiens)
Construct: purchased BIOMOL Research Laboratories (Plymouth Meeting, Pa.)
Sequence (P29466 120-297 limits assumed): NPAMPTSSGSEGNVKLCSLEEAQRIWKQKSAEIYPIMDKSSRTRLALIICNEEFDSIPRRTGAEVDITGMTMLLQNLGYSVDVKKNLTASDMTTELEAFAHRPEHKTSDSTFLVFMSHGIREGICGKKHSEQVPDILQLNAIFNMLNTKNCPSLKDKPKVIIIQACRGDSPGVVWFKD
Sequence (P29466 317-404 limits assumed): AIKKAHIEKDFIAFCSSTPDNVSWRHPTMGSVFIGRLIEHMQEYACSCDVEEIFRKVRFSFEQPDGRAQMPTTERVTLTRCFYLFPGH
Test: Enzyme inhibition assay, caspase 1 (fluorogenic Ac-YVAD-AMC)
Type: biochemical
Details: Table 2; read-out: IC50 (nM) Caspase 1
MEASURE: log10 of IC50 (log10 of the value in nM)

>  <COMPOUND>
N#CC(C#N)=C1C(=O)Nc2ccc(S(=O)(=O)N3CCCC3COc3ccccc3)cc21 (stereo not shown) [Compound 26]

>  <log10 of IC50>
3.26

$$$$
>  <COMPOUND>
N#CC(C#N)=C1C(=O)N(Cc2ccc(OCCF)cc2)c2ccc(S(=O)(=O)N3CC[C@H]3COc3cccnc3)cc21 [WC-II-104]

>  <log10 of IC50>
3.46

$$$$
>  <COMPOUND>
N#CC(C#N)=C1C(=O)N(Cc2ccc(O)cc2)c2ccc(S(=O)(=O)N3CCC[C@H]3COc3ccccc3)cc21 [Compound 27c]

>  <log10 of IC50>
3.36

$$$$
>  <COMPOUND>
CC(=O)N[C@@H](Cc1ccc(O)cc1)C(=O)N[C@H](C(=O)N[C@@H](C)C(=O)N[C@H](C=O)CC(=O)O)C(C)C [Ac-YVAD-CHO, reference compound]

>  <log10 of IC50>
0.91

$$$$
>  <COMPOUND>
N#CC(C#N)=C1C(=O)Nc2ccc(S(=O)(=O)N3CC[C@H]3COc3ccccc3)cc21 [WC-II-54]

>  <log10 of IC50>
3.38

$$$$
>  <COMPOUND>
N#CC(C#N)=C1C(=O)N(Cc2ccc(OCCF)cc2)c2ccc(S(=O)(=O)N3CCC[C@H]3COc3ccccc3)cc21 [WC-II-92]

>  <log10 of IC50>
4.00

$$$$
